Recorded values, source patent US20240117334A1.

study.system: EGVD/AE-ACT
experiment.notes: reaction of the protease with the serpin bait EGVD/AE-ACT
readout.label: k*app (second order rate constant)

chymase C22S/F41R/L99G/G151T/F173Y/Y215R/R217M/A226R (enzyme) IIGGTESKPHSRPYMAYLEIVTSNGPSKRCGGFLIRRNFVLTAAHCAGRSITVTLGAHNITEEEDTWQKLEVIKQFRHPKYNTSTGHHDIMLLKLKEKASLTLAVGTLPFPSQFNFVPPGRMCRVAGWGRTGVLKPTSDTLQEVKLRLMDPQACSHYRDFDHNLQLCVGNPRKTKSAFKGDSGGPLLCAGVAQGIVSRGMSDAKPPRVFTRISHYRPWINQILQAN	773
chymase C22S/K192R/A226R (enzyme) IIGGTESKPHSRPYMAYLEIVTSNGPSKFCGGFLIRRNFVLTAAHCAGRSITVTLGAHNITEEEDTWQKLEVIKQFRHPKYNTSTLHHDIMLLKLKEKASLTLAVGTLPFPSQFNFVPPGRMCRVAGWGRTGVLKPGSDTLQEVKLRLMDPQACSHFRDFDHNLQLCVGNPRKTKSAFRGDSGGPLLCAGVAQGIVSYGRSDAKPPRVFTRISHYRPWINQILQAN	147
chymase C22S (enzyme) IIGGTESKPHSRPYMAYLEIVTSNGPSKFCGGFLIRRNFVLTAAHCAGRSITVTLGAHNITEEEDTWQKLEVIKQFRHPKYNTSTLHHDIMLLKLKEKASLTLAVGTLPFPSQFNFVPPGRMCRVAGWGRTGVLKPGSDTLQEVKLRLMDPQACSHFRDFDHNLQLCVGNPRKTKSAFKGDSGGPLLCAGVAQGIVSYGRSDAKPPAVFTRISHYRPWINQILQAN	30.2
chymase C22S/F41R/L99Y/G151T/F173K/R217S/A226R (enzyme) IIGGTESKPHSRPYMAYLEIVTSNGPSKRCGGFLIRRNFVLTAAHCAGRSITVTLGAHNITEEEDTWQKLEVIKQFRHPKYNTSTYHHDIMLLKLKEKASLTLAVGTLPFPSQFNFVPPGRMCRVAGWGRTGVLKPTSDTLQEVKLRLMDPQACSHKRDFDHNLQLCVGNPRKTKSAFKGDSGGPLLCAGVAQGIVSYGSSDAKPPRVFTRISHYRPWINQILQAN	684
chymase F41V/L99H/G151V/F173Y/Y215K/R217G/A226R (enzyme) IIGGTECKPHSRPYMAYLEIVTSNGPSKVCGGFLIRRNFVLTAAHCAGRSITVTLGAHNITEEEDTWQKLEVIKQFRHPKYNTSTHHHDIMLLKLKEKASLTLAVGTLPFPSQFNFVPPGRMCRVAGWGRTGVLKPVSDTLQEVKLRLMDPQACSHYRDFDHNLQLCVGNPRKTKSAFKGDSGGPLLCAGVAQGIVSKGGSDAKPPRVFTRISHYRPWINQILQAN	649
